Where do these numbers come from? They come from patent US20210324061A1.

Property: Fold-difference (KD vs 39B6-A); scope: individual binders
# TESTED ON: T1, human GARP-TGF-β1 complex (recombinant complex of human GARP and latent human TGF-β1) (human, UniProt Q14392 20-627; P01137 30-278; P01137 279-390)
# T1 construct: also called huGARP-TGF-β1; hGARP-TGF-β1
# T1 sequence (Q14392 20-627 limits assumed, chain 1 of 3): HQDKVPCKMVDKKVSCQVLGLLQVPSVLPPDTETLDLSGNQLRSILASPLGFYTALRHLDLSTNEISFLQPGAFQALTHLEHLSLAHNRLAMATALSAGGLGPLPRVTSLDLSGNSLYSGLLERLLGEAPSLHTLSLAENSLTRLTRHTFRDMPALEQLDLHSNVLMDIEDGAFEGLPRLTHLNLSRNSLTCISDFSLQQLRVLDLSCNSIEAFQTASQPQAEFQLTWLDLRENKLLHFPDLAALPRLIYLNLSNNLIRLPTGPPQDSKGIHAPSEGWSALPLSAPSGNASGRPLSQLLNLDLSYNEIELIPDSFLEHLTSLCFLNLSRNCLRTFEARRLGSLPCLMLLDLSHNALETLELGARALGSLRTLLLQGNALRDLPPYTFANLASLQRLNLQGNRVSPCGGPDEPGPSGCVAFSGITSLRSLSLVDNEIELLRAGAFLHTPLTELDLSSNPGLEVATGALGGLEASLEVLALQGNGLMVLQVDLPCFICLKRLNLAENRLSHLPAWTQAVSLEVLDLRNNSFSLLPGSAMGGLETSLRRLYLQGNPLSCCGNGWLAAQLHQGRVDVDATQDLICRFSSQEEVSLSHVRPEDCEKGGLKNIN
# T1 sequence (P01137 30-278 limits assumed, chain 2 of 3): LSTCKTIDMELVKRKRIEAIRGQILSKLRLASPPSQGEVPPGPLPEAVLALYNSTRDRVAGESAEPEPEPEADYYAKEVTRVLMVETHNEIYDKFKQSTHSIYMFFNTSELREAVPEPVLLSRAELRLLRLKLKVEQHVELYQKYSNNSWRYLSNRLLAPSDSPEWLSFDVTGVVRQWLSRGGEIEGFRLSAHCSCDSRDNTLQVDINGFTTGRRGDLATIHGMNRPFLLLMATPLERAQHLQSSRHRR
# T1 sequence (P01137 279-390 limits assumed, chain 3 of 3): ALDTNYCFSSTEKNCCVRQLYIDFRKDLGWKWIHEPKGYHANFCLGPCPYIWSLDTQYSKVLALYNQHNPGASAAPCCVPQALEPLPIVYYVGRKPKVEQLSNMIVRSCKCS
# ASSAY NOTES: SPR Biacore T200, CM5 chip coated with the antibody at 200 RU, complex in solution
OBSERVABLE: Fold-difference (KD vs 39B6-A)

>>> observed_result("39B6-AEE IgG4 S228P (antibody, V domains shown) VH: QVQLVQPGAEVRKPGASVKVSCKASGYRFTSYYIDWVRQAPGQGLEWMGRIDPEDAGTKYAQKFQGRVTMTADTSTSTVYVELSSLRSEDTAVYYCAREEWETVVVGDLMYEYEYWGQGTLVTVSS VL: DIQMTQSPSSLSASVGDRVTITCQASQSISSYLAWYQQKPGQAPKILIYGASRLKTGVPSRFSGSGSGTSFTLTISSLEPEDAATYYCQQYASVPVTFGQGTKVEIKR")
"76.7 fold"
>>> observed_result("39B6-A IgG4 S228P (antibody, V domains shown, 39B6 with G55A in HCDR2, in the human IgG4 S228P backbone; also called 39B6-ANE) VH: QVQLVQPGAEVRKPGASVKVSCKASGYRFTSYYIDWVRQAPGQGLEWMGRIDPEDAGTKYAQKFQGRVTMTADTSTSTVYVELSSLRSEDTAVYYCARNEWETVVVGDLMYEYEYWGQGTLVTVSS VL: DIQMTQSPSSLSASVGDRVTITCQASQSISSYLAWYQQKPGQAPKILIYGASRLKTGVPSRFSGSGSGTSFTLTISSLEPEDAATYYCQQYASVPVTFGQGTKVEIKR")
"1 fold"
>>> observed_result("39B6-ANK IgG4 S228P (antibody, V domains shown, Variant of 39B6-A in IgG4 S228P format; Positions are Kabat-type) VH: QVQLVQPGAEVRKPGASVKVSCKASGYRFTSYYIDWVRQAPGQGLEWMGRIDPEDAGTKYAQKFQGRVTMTADTSTSTVYVELSSLRSEDTAVYYCARNKWETVVVGDLMYEYEYWGQGTLVTVSS VL: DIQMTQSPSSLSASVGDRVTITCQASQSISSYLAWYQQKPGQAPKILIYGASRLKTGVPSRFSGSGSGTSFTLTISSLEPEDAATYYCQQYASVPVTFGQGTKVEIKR")
"1.5 fold"
